B1: tRNA (parent)
chain: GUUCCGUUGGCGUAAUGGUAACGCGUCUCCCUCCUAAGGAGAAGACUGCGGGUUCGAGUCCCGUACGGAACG

- Variants of: B1
- procedure.summary: yeast fitness relative to wild type (ratio to wild type); higher = fitter; tRNA-Arg(CCU), competitive growth, 37 C, YPD
Fewer inactive variants are shown than the library holds.
Please respond with reported yeast fitness for every item in the list.

See these solved cases before continuing.
Any idea what its yeast fitness is? The variant is C4U C34G A69G
≤ 0.5

Name the recorded yeast fitness for A57C C61U A65U .
0.563

What does the data say about its yeast fitness? Entry: C4A U13A G18A G68C
≤ 0.5

# input variant: A15C C22A A42C C46A A65U ; wanted: its yeast fitness
≤ 0.5

Quick check: yeast fitness of U7G A20G U32G A43C A45U ?
≤ 0.5

Hi there! I need yeast fitness for each item below, if you can.
1. C11U C22G C30U U54C
2. A14G C29G A37G C46U C66G
3. U19A C27U C55U
4. G25C A45C A70C
5. U2G U59C C66A G67A

1: ≤ 0.5; 2: ≤ 0.5; 3: 0.572; 4: 0.677; 5: ≤ 0.5

I need yeast fitness for every entry listed below, if you could help.
1. C11G A14C A15C A40C A70C
2. C5A A14G C24A U32C
3. C5A C49U
4. U2C U3A A14C C30U A40U C49U
5. C22U U32G C34U A40G G58A C66U
6. U13A G23A A36C G38A C61G

1. ≤ 0.5
2. ≤ 0.5
3. 0.848
4. ≤ 0.5
5. ≤ 0.5
6. ≤ 0.5
